This collection of values is drawn from ChEMBL document CHEMBL1134782.

# Assay: Inhibition of platelet aggregation induced by thrombin (0.1 unit/ml)
# Type: functional
Each entry below lists one item and its recorded IC50 value.

Smiles text	IC50
O=C(O)c1ccc(-c2nn(Cc3ccccc3)c3ccccc23)o1	> 270 µM
O=C(O)c1cccc(-c2nn(Cc3ccccc3)c3ccccc23)c1	> 270 µM
CCOC(=O)c1ccc(-c2nn(Cc3ccccc3)c3ccccc23)cc1	29.3 µM
Cc1ccc2c(-c3ccc(CO)o3)nn(Cc3ccccc3)c2c1	147 µM
O=C(O)c1ccc(-c2nn(Cc3ccccc3)c3cc4c(cc23)OCO4)o1	> 270 µM

In the following, a different compound is considered.
Quick note, IC50 for COC(=O)c1ccc(-c2nn(Cc3ccccc3)c3ccccc23)o1 landed at > 270 µM
